# Target Or Test System: His-TEV-DYRK1A Kinase domain (aa127-485) (Homo sapiens)
# Construct: His-TEV-DYRK1A Kinase domain (aa127-485); His tag (N); TEV protease cleavage site (N)
# Experimental Protocol: Kinase ADP assay (ADP Hunter), DYRK1A kinase domain
# Format: biochemical
# Experimental Parameters: 20 μM ATP
Hi! Could you tag entries with IC50 below 0.01 µM as condition met, and those at or above as condition not met? Much appreciated.

Molecule | Group Label
Cc1nc2ccc(-c3cc(N)nc(N)c3)nc2n1Cc1cccc(Cl)c1 | condition not met

Task: Given Cc1nc2ccc(-c3cc(N)nc(N)c3)nc2n1C[C@@H](C)Oc1ccc(Cl)cn1 (single isomer, unassigned) , is recorded IC50 strictly lower than 0.01 µM?
Output: condition not met

Task: Given Cc1nc2ccc(-c3cc(N)nc(N)c3)nc2n1CCc1ccc2c(c1)OCCO2 , is recorded IC50 strictly lower than 0.01 µM?
Output: condition met

----------
# Target Or Test System: CLK1 (Homo sapiens, UniProt P49759)
# Construct: full-length human kinases from Carna Biosciences; purchased Carna Biosciences 04-126
# Sequence (P49759 1-526 isoform P49759-3): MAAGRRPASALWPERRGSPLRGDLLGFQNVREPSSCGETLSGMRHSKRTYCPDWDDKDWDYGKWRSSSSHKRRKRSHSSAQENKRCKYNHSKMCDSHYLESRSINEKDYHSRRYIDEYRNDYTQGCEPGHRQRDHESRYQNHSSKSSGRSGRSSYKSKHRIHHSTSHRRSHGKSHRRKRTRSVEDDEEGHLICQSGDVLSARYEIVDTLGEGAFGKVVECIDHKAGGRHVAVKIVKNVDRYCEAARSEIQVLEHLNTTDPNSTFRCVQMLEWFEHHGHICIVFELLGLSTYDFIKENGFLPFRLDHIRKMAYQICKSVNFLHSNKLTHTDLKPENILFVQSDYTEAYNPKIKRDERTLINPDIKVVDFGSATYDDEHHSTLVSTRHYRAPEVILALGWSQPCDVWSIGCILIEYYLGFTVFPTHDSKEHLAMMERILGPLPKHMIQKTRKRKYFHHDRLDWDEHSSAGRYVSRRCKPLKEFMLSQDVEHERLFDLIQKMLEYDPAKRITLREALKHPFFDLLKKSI
# Experimental Protocol: Kinase TR-FRET assay, CLK1
# Assay type: biochemical
# Experimental Parameters: full-length human kinase, 10 μM ATP
Hi there, I'd appreciate the recorded IC50 for every entry that follows.
One number for each entry, in µM.

Compound | Measure Unit | IC50
COc1cccc(OCCn2c(C)nc3ccc(-c4cc(N)nc(N)c4)nc32)c1 [Example 202] | µM | 0.018
N#Cc1nc2ccc(-c3cc(N)nc(N)c3)nc2n1C1CC1 [Example 224] | µM | 0.02
Cc1nc2ccc(-c3cc(N)nc(N)c3)nc2n1CCOc1cccc(Cl)c1 [Example 200] | µM | 0.02
Cc1nc2ccc(-c3cc(N)nc(N)c3)nc2n1CCC1CCOCC1 [Example 78] | µM | 0.018

Quick note, IC50 for C=CCn1c(C#N)nc2ccc(-c3cc(N)nc(N)c3)nc21 [Example 225] landed at 0.021

----------
# Target Or Test System: CLK1 (Homo sapiens, UniProt P49759)
# Construct: full-length human kinases from Carna Biosciences; purchased Carna Biosciences 04-126
# Experimental Protocol: Kinase TR-FRET assay, CLK1
# Format: biochemical
# Experimental Parameters: full-length human kinase, 10 μM ATP
Hi there, I'd appreciate the recorded IC50 for every entry that follows.
One number for each entry, in µM.

These recorded examples may help you get a feel for the data.
Compound | IC50 (µM)
CCCCc1nc2ccc(-c3cc(N)nc(N)c3)nc2n1CCCC | 0.238
Cc1nc2ccc(-c3cc(N)nc(N)c3)nc2n1CCOc1ccc(Cl)cc1 | 0.021
Cc1nc2ccc(-c3cc(N)nc(N)c3)nc2n1CC1CC1(Cl)Cl (stereo not drawn) | 0.021
Cc1nc2ccc(-c3cc(N)nc(N)c3)nc2n1CCC1CCCC1 | 0.017
Cc1nc2ccc(-c3cc(N)nc(N)c3)nc2n1CC1CCCC1 | 0.024
COCCCCn1c(C)nc2ccc(-c3cc(N)nc(N)c3)nc21 | 0.019
Cc1nc2ccc(-c3cc(N)nc(N)c3)nc2n1CCc1ccc2c(c1)OCO2 | 0.019
Nc1cc(-c2ccc3nc(Cl)n(C4CCCC4)c3n2)cc(N)n1 | 0.019

Okay, now this compound:
Quick note, IC50 for Cc1nc2ccc(-c3cc(N)nc(N)c3)nc2n1CCOc1ccccc1 landed at 0.016
